- measured-target: ATM enzyme (human) (Homo sapiens)
- Sequence (Q13315 whole entry): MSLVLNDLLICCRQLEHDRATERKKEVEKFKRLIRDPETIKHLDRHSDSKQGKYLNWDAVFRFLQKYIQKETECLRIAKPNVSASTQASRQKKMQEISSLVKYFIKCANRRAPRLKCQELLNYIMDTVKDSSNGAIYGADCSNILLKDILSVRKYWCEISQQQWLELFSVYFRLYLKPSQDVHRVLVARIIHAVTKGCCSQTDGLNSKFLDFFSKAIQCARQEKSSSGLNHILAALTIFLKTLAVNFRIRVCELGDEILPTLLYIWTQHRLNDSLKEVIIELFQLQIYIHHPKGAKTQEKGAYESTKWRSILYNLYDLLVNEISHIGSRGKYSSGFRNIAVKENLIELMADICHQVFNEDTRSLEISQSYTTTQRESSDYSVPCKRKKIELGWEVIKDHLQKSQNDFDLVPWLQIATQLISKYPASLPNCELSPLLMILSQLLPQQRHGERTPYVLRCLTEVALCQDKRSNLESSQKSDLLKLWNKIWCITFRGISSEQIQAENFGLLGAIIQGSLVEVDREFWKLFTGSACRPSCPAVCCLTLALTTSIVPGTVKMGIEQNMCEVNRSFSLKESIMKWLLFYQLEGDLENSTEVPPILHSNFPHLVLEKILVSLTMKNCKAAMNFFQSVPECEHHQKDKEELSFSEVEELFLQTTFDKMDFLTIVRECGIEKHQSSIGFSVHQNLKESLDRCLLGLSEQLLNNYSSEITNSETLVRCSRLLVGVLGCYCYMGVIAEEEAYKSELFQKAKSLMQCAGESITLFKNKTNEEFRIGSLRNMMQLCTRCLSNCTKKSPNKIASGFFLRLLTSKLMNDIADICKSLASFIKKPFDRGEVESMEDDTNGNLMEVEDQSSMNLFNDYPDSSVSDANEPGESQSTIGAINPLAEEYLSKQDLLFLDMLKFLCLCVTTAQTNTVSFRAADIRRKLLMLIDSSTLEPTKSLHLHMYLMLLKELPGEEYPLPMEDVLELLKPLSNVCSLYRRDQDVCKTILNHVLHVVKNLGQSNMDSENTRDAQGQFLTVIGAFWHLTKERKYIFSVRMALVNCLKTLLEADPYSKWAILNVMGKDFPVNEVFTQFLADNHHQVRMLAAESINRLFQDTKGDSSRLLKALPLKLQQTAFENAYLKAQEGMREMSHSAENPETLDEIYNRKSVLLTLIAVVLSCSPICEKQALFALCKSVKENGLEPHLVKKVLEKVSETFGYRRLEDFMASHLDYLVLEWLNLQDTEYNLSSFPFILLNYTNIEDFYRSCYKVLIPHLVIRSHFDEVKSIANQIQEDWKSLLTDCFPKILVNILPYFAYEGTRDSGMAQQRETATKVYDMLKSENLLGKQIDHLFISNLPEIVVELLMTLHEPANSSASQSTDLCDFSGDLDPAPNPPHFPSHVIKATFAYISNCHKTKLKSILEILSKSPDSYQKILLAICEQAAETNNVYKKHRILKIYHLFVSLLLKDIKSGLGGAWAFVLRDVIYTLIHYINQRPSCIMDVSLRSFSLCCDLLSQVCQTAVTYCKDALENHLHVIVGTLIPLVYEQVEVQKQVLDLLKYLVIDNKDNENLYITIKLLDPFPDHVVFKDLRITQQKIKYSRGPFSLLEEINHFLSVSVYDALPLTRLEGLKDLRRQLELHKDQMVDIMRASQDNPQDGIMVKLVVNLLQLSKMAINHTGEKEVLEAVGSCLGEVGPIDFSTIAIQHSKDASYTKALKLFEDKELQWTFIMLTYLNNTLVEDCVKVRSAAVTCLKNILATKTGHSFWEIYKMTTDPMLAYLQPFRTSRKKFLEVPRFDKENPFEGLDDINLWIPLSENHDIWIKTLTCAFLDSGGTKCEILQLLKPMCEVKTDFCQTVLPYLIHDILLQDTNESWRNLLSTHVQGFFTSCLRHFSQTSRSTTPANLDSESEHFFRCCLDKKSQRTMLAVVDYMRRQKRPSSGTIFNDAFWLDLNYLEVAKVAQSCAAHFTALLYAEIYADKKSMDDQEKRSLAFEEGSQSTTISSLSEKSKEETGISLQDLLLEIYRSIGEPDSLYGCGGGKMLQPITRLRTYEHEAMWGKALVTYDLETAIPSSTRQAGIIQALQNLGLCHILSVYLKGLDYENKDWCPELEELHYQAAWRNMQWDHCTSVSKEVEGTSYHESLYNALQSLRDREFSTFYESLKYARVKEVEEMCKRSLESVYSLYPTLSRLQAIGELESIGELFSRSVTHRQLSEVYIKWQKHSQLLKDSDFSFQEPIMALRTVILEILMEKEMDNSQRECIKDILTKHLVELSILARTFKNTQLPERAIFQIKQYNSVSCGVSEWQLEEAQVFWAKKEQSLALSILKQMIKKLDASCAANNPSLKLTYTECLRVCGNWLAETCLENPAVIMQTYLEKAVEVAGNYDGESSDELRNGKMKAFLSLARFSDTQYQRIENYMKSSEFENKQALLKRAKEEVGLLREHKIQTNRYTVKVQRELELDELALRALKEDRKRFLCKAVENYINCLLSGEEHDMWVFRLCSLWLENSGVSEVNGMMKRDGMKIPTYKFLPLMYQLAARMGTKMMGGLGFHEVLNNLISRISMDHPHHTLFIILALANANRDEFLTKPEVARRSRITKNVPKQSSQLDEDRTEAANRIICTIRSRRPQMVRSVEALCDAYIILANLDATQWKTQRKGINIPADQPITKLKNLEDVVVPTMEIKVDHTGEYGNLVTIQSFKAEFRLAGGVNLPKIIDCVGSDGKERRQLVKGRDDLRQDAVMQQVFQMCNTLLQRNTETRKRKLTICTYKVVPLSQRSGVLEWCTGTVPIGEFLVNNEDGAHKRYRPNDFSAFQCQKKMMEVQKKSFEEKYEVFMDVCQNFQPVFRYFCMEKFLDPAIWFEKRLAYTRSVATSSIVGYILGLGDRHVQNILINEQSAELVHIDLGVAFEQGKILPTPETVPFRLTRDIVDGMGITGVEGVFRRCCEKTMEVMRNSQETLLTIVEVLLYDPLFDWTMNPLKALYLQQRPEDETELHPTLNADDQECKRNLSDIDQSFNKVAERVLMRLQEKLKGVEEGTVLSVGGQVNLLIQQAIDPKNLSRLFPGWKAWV
- run-description: ATM kinase assay (HTRF, GST-cMyc-p53 substrate)
- Assay type: biochemical
- condition-details: 0.5 h; C 0.1 μm (final concentration of compound); read-out: Inh (%) of ATM kinase
For each entry below, report its inhibition at 0.1 µM value.
One number for each entry, in %.

Some molecules with known inhibition at 0.1 µM results, for comparison:
molecule	inhibition at 0.1 µM [%]
CN(C)C1CCN(c2ccc(-c3ccc4ncc5nnc(C6CCOCC6)n5c4c3)cc2)CC1 [Example 12]	93
CN(C)C1CCN(c2ccc(-c3ccc4ncc5nnc(C6CCOCC6)n5c4c3)c(F)c2)CC1 [Example 48]	93
NC1CCN(c2ccc(-c3ccc4ncc5nnc(C6CCOCC6)n5c4c3)cc2)CC1 [Example 41]	81
CNC1CCN(c2ccc(-c3ccc4ncc5nnc(C6CCOCC6)n5c4n3)cc2)CC1 [Example 74]	96
CN(C)C1CCN(c2ccc(-c3ccc4ncc5nnc(C6CCOCC6)n5c4n3)cc2)CC1 [Example 72]	97

Parameter requested: inhibition at 0.1 µM. Apply to each item below.
1. C[C@@H]1CN(c2nnc3cnc4ccc(-c5ccc(OCCCN(C)C)cc5)cc4n23)C[C@H](C)N1C [Example 23]
2. CN1CCN(c2ccc(-c3ccc4ncc5nnc(C6CCOCC6)n5c4c3)cc2)CC1 [Example 13]
3. C[C@@H]1CN(c2ccc(-c3ccc4ncc5nnc(C6CCOCC6)n5c4c3)cc2)C[C@H](C)N1C [Example 14]
4. CN(C)CCCOc1ccc(-c2ccc3ncc4nnc(CN5CCOCC5)n4c3n2)cc1 [Example 79]
5. CN(C)C1CCN(c2ccc(-c3ccc4ncc5nnc(C6CCOCC6)n5c4c3)cc2Cl)CC1 [Example 45]
6. CNC1CCN(c2ccc(-c3ccc4ncc5nnc(C6CCOCC6)n5c4c3)cc2)CC1 [Example 42]
7. CN(C)C1CCN(c2ccc(-c3ccc4ncc5nnc(C6CCOCC6)n5c4c3)cc2F)CC1 [Example 44]

Reply text:
1. 99
2. 49
3. 52
4. 62
5. 94
6. 90
7. 94

Parameter requested: inhibition at 0.1 µM. Apply to each item below.
1. CN(C)C1CCN(c2ccc(-c3ccc4ncc5nnc(CN6CCOCC6)n5c4c3)cc2)CC1 [Example 65]
2. CCNC1CCN(c2ccc(-c3ccc4ncc5nnc(C6CCOCC6)n5c4c3)cc2)CC1 [Example 43]
3. C[C@@H]1CN(c2nnc3cnc4ccc(-c5ccc(OCCCN(C)C)c(C(F)(F)F)c5)cc4n23)C[C@H](C)N1C [Example 57]
4. CN(C)C1CCN(c2ccc(-c3ccc4ncc5nnc(C6CCOCC6)n5c4c3)cn2)CC1 [Example 15]

Reply text:
1. 80
2. 89
3. 100
4. 80
